Reference source: patent US20160297884A1

- targetEntity: T1, Human BCMA (human, UniProt Q02223 1-54, limits assumed)
- T1 construct: Soluble analyte in SPR; construct not described; also called huBCMA; B-cell maturation antigen
- T1 sequence (looked up): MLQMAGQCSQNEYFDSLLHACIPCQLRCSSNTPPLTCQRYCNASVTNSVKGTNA
- assayComment: SPR, IgG immobilised, 25 C
measurementName: T ½ (min)
Numbers only, in min.

For the 3 binders below, give their T ½ values.
1. L3.PY/P6E01 (antibody, V domains shown, IgG) VH: EVQLLESGGGLVQPGGSLRLSCAASGFTFGSYAMTWVRQAPGKGLEWVSAISGSGGNTFYADSVKGRFTISRDNSKNTLYLQMNSLRAEDTAVYYCARVSPIASGMDYWGQGTLVTVSS VL: EIVLTQSPGTLSLSPGERATLSCRASQSVSSSYLAWYQQKPGQAPRLLIYGASSRATGIPDRFSGSGSGTDFTLTISRLEPEDFAVYYCQHYPYPPSFTFGQGTKVEIK
2. L1.LGF/L3.KW/H3.AQ (antibody, V domains shown, IgG) VH: EVQLLESGGGLVQPGGSLRLSCAASGFTFGSYAMTWVRQAPGKGLEWVSAISGSGGNTFYADSVKGRFTISRDNSKNTLYLQMNSLRAEDTAVYYCARVSPIAAQMDYWGQGTLVTVSS VL: EIVLTQSPGTLSLSPGERATLSCRASQSLGSFYLAWYQQKPGQAPRLLIYGASSRATGIPDRFSGSGSGTDFTLTISRLEPEDFAVYYCKHYGWPPSFTFGQGTKVEIK
3. L1.GDF/L3.NY/P6E01 (antibody, V domains shown, IgG) VH: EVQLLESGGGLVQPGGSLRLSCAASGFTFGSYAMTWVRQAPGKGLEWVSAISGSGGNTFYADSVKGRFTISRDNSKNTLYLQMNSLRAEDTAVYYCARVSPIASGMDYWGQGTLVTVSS VL: EIVLTQSPGTLSLSPGERATLSCRASQSVGDFYLAWYQQKPGQAPRLLIYGASSRATGIPDRFSGSGSGTDFTLTISRLEPEDFAVYYCQHYNYPPSFTFGQGTKVEIK

50.7
12.1
1.95
